- study-system: T1, human alpha2-Antiplasmin (human, UniProt P08697 40-491)
- T1 construct: Bought (antibodies online, ABIN2544306); also called human A2AP; a2AP
- T1 sequence: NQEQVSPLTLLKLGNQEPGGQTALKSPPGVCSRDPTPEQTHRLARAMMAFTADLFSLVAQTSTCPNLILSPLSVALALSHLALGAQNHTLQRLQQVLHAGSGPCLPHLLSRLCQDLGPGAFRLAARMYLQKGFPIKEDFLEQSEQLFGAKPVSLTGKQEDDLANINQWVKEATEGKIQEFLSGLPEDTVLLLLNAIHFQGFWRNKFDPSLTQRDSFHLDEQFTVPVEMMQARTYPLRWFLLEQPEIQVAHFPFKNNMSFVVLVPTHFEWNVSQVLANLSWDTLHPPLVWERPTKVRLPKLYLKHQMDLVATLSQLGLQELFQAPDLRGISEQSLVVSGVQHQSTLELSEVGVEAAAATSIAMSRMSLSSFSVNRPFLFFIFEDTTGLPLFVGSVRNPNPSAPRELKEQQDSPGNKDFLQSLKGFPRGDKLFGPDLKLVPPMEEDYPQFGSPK
- experimental-details: ELISA, coated antigen, 3rd exp.
# EC50 values compiled below
The answer is to be given in nM; state only the numeric part.

Some entries whose results are on file:
>  <binder>
TPP-14323 hIgG1 (antibody, V domains shown) VH: EVQLLESGGGLVQPGGSLRLSCAASGFTFDDYAMSWVRQAPGKGLEWVSAIGTGGGTYYADSVKGRFTISRDNSKNTLYLQMNSLRAEDTAVYYCAREYYDSSGYYHLTYWGQGTLVTVSS VL: QSVLTQPPSASGTPGQRVTISCTGSSSNIGATYDVHWYQQLPGTAPKLLIYSNNQRPSGVPDRFSGSKSGTSASLAISGLRSEDEADYYCAAWDWSLSGWVFGGGTKLTVLG

>  <EC50 (nM)>
71

$$$$
>  <binder>
TPP-14314 hIgG1 (antibody, V domains shown, Human IgG1 lambda) VH: EVQLLESGGGLVQPGGSLRLSCAASGFTFDDYAMSWVRQAPGKGLEWVSAIGTGGGTYYADSVKGRFTISRDNSKNTLYLQMNSLRAEDTAVYYCAREYYDSSGYYHLVYWGQGTLVTVSS VL: QSVLTQPPSASGTPGQRVTISCTGSSSNIGATYDVHWYQQLPGTAPKLLIYSNNQRPSGVPDRFSGSKSGTSASLAISGLRSEDEADYYCAAWDVSLSGWVFGGGTKLTVL

>  <EC50 (nM)>
84

$$$$

# input for lookup
get_value(item= TPP-14308 hIgG1 (antibody, V domains shown, starting point of the germlining) VH: EVQLLESGGGLVQPGGSLRLSCAASGFTFDDYAMSWVRQAPGKGLEWVSAIGTGGGTYYADSVKGRFTISRDNSKNTLYLQMNSLRAEDTAVYYCAREGYDSSGYYHLDYWGQGTLVTVSS VL: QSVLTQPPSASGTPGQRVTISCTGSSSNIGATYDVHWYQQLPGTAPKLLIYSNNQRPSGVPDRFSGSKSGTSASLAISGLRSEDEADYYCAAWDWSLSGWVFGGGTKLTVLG , readout=EC50) returns 60
